Assay: Plasma toxicokinetics after single gavage administration in rats
Type: in vivo, Harlan Sprague Dawley rats
Settings: female, Hsd:Sprague Dawley SD, rat, plasma, po, 34 mg/kg
measuredQuantity: Tmax (min)
Kindly answer with a numeric value in min, unit omitted.

[ask] I would be grateful if you could share the reported Tmax for Oc1ccc(C(c2ccc(O)cc2)(C(F)(F)F)C(F)(F)F)cc1 .
[reply] 46

----------
Assay: Plasma toxicokinetics after single intravenous administration in rats
Type: in vivo, Harlan Sprague Dawley rats
Settings: female, Hsd:Sprague Dawley SD, rat, iv, 34 mg/kg
measuredQuantity: AUC(0-inf) (ng·h/mL)
Kindly answer with a numeric value in ng·h/mL, unit omitted.

[ask] I would be grateful if you could share the reported AUC(0-inf) for Oc1ccc(C(c2ccc(O)cc2)(C(F)(F)F)C(F)(F)F)cc1 .
[reply] 45300
